Each entry below carries its recorded IC50.
target_or_test_system: UniProtKB O00763
measurement_description: In vitro ACC2 inhibition assay (ADP-Glo)
Format: biochemical
study_conditions: read-out: ACC2

Task item: Indicate its recorded IC50; the compound in question is Cc1c(-c2ncco2)sc2c1c(=O)n(C(C)(C)C(=O)O)c(=O)n2C[C@H](OC1CCOCC1)c1ccccc1
Reply: < 1 µM

Task item: Indicate its recorded IC50; the compound in question is CCOc1ccccc1[C@H](Cn1c(=O)n(C(C)(C)C(=O)O)c(=O)c2c(C)c(-c3ncco3)sc21)OC(C)C
Reply: < 0.1 µM

Task item: Indicate its recorded IC50; the compound in question is CCc1ccccc1CCn1c(=O)n(C(C)(C)C(=O)O)c(=O)c2c(C)c(-c3ncco3)sc21
Reply: < 1 µM

Task item: Indicate its recorded IC50; the compound in question is CCOC(=O)c1sc2c(c1C)c(=O)n(CCCO)c(=O)n2CCc1ccccc1
Reply: 5 to 20 µM

Task item: Indicate its recorded IC50; the compound in question is CCOC(=O)c1sc2c(c1C)c(=O)n(C[C@@H](C)O)c(=O)n2CCc1ccccc1
Reply: 5 to 20 µM

---

Each entry below carries its recorded pIC50.
target_or_test_system: ACC2 (Homo sapiens, UniProt O00763)
Sequence (O00763 whole entry, species assumed): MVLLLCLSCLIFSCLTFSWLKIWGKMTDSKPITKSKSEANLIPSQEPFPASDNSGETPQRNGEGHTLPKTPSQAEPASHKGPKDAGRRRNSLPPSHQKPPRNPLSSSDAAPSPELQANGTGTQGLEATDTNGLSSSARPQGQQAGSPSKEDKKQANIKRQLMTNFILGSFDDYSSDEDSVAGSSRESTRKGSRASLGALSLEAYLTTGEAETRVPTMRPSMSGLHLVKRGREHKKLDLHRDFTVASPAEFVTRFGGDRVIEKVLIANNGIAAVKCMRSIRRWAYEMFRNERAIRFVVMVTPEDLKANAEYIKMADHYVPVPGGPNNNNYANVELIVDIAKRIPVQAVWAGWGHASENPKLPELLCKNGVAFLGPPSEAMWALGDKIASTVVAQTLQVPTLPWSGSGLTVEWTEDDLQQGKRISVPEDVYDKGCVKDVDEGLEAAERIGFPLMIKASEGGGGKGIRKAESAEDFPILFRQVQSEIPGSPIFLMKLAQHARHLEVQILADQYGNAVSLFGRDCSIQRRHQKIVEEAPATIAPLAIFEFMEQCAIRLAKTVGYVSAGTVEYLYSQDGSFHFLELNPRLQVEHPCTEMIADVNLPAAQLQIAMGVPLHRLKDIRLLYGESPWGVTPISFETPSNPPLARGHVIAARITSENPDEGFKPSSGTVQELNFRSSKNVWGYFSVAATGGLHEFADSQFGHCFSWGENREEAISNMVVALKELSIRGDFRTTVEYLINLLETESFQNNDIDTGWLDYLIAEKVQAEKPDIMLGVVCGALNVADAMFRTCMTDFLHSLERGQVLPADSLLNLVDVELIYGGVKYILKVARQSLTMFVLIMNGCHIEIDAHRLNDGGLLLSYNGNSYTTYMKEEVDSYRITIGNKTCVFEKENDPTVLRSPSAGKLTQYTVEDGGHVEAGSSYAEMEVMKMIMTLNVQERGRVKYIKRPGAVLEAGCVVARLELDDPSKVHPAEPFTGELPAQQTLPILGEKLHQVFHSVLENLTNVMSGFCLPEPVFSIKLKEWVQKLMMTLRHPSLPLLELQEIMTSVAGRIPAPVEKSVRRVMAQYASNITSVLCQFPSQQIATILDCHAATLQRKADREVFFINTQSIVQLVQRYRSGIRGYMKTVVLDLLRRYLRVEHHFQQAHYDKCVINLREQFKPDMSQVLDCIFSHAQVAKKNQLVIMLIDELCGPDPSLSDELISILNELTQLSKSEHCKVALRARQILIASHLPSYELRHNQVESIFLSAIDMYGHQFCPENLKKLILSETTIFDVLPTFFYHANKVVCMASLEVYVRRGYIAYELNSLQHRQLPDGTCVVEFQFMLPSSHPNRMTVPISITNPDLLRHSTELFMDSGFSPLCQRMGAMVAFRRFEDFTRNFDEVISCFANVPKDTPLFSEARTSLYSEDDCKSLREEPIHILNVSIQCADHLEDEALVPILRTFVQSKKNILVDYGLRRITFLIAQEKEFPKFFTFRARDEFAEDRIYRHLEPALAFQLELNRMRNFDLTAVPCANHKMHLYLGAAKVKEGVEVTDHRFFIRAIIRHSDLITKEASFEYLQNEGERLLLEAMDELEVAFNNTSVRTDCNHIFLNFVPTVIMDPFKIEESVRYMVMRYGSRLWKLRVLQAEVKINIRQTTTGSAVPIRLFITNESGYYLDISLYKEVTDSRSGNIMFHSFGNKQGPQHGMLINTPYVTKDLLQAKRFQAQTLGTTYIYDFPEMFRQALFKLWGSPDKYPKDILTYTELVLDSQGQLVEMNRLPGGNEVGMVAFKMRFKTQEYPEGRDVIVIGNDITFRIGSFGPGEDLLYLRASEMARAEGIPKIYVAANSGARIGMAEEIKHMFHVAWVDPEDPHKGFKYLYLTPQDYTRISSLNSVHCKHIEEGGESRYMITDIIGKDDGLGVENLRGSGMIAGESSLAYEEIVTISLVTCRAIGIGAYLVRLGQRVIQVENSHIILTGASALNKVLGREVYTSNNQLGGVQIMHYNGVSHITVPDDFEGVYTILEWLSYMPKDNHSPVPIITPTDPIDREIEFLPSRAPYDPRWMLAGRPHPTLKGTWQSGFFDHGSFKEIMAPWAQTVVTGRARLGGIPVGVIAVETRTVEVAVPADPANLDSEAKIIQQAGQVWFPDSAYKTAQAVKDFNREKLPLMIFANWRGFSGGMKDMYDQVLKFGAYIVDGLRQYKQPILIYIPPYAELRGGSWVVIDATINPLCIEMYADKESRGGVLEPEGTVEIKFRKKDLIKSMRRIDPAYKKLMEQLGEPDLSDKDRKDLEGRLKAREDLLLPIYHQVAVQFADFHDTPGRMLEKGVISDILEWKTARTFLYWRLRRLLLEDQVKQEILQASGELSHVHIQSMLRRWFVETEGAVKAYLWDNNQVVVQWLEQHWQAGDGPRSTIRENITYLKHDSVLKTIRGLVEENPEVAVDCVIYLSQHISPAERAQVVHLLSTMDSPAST
measurement_description: In vitro ACC2 inhibition assay (ADP-Glo)
Assay type: biochemical
study_conditions: read-out: ACC2
Excerpt: An exemplary procedure for the in vitro ACC inhibition assay, which can be used to determine the inhibitory action of compounds of the invention toward either ACC1 or ACC2, follows. The ADP-Glo™ Kinase Assay kit from Promega was used. The ADP-Glo™ Kinase Assay is a luminescent ADP detection assay to measure enzymatic activity by quantifying the amount of ADP produced during an enzyme reaction. […] Luminescence can be correlated to ADP concentrations by using an ATP-to-ADP conversion curve. […]
pIC50: −log10 of the molar value.

Reference set, count: 3
{"columns": ["compound", "pIC50"],
 "data": [
  ["COc1ccccc1[C@H](Cn1c(=O)n(C(C)(C)C(=O)O)c(=O)c2c(C)c(-c3ncco3)sc21)OC[C@@H](C)O [I-258]", "> 7.00"],
  ["CCCOC(=O)c1sc2c(c1C)c(=O)n(CCO)c(=O)n2CCc1ccccc1 [I-41]", "< 4.30"],
  ["CCc1ccccc1[C@H](Cn1c(=O)n(C(C)(C)C(=O)O)c(=O)c2c(C)c(-c3ncco3)sc21)O[C@H]1CC[C@@H](O)CC1 [I-245]", "> 7.00"]
]}

Task item: State the measured pIC50 (ACC2 (Homo sapiens, UniProt O00763)) of CCOC(=O)c1sc2c(c1C)c(=O)n(C(C)(C)C(=O)O)c(=O)n2C[C@H](OC(C)C)c1ccc(I)cc1 [I-129]
Reply: 4.70 to 5.30

Task item: State the measured pIC50 (ACC2 (Homo sapiens, UniProt O00763)) of CCOC(=O)c1sc2c(c1C)c(=O)n(CCC(N)=O)c(=O)n2CCc1ccccc1 [I-55]
Reply: > 5.30

Task item: State the measured pIC50 (ACC2 (Homo sapiens, UniProt O00763)) of Cc1c(-c2ncco2)sc2c1c(=O)n(C(C)(C)C(=O)O)c(=O)n2C[C@@H](Oc1ccc(F)cc1)c1ccccc1 [I-150]
Reply: 4.70 to 5.30

Task item: State the measured pIC50 (ACC2 (Homo sapiens, UniProt O00763)) of CCOC(=O)c1sc2c(c1C)c(=O)n(CC(=O)OC(C)(C)C)c(=O)n2CCc1ccccc1 [I-8]
Reply: 4.70 to 5.30

---

target_or_test_system: ACC2 (Homo sapiens, UniProt O00763)
measurement_description: In vitro ACC2 inhibition assay (ADP-Glo)
Format: biochemical
study_conditions: read-out: ACC2
Text: An exemplary procedure for the in vitro ACC inhibition assay, which can be used to determine the inhibitory action of compounds of the invention toward either ACC1 or ACC2, follows. The ADP-Glo™ Kinase Assay kit from Promega was used. The ADP-Glo™ Kinase Assay is a luminescent ADP detection assay to measure enzymatic activity by quantifying the amount of ADP produced during an enzyme reaction. […] Luminescence can be correlated to ADP concentrations by using an ATP-to-ADP conversion curve. […]
pIC50: −log10 of the molar value.
Each entry below carries its recorded pIC50.

Task item: Indicate its recorded pIC50; the compound in question is CCOc1ccccc1CCn1c(=O)n(C(C)(C)C(=O)O)c(=O)c2c(C)c(-c3ncco3)sc21 [I-135]
Reply: > 6.00

Task item: Indicate its recorded pIC50; the compound in question is Cc1c(-c2ncco2)sc2c1c(=O)n(C(C)(C)C(=O)O)c(=O)n2C[C@H](O[C@H]1CC[C@H](O)CC1)c1ccccc1OC(C)C [I-294]
Reply: > 7.00

Task item: Indicate its recorded pIC50; the compound in question is CCOC(=O)c1sc2c(c1C)c(=O)n(CCO)c(=O)n2CCc1ccc2ccccc2c1 [I-30]
Reply: < 4.30

Task item: Indicate its recorded pIC50; the compound in question is Cc1csc2c1c(=O)n(CC(=O)O)c(=O)n2CCc1ccccc1 [I-63]
Reply: 4.30 to 4.70

---

target_or_test_system: ACC2 (Homo sapiens)
measurement_description: In vitro ACC2 inhibition assay (ADP-Glo)
Assay type: biochemical
study_conditions: read-out: ACC2
pIC50: −log10 of the molar value.
Each entry below carries its recorded pIC50.

{"columns": ["molecule", "pIC50"],
 "data": [
  ["Cc1c(-c2ncco2)sc2c1c(=O)n(C(C)(C)C(=O)O)c(=O)n2C[C@H](OC1CCCCC1)c1ccccc1 [I-140]", "> 6.00"]
]}

Task item: Indicate its recorded pIC50; the molecule in question is Cc1c(-c2ncco2)sc2c1c(=O)n(C(C)(C)C(=O)O)c(=O)n2C[C@H](OCC1CCCO1)c1ccccc1 (some centres unmarked) [I-146]
Reply: > 6.00

---

Each entry below carries its recorded MIC.
Tested on: C. krusei ATCC 6258
measurement_description: Anti-Fungal Activity Assay (broth microtiter MIC)
Format: cell-based
study_conditions: Pichia kudriavzevii, ATCC6258, 48 h, 3 replicates, test compounds read at 48 h, read-out: MIC
I only need the number, in µg/mL, no unit after it.

Reference set, count: 5
{"columns": ["compound", "units_of_measure", "MIC"],
 "data": [
  ["COc1ccccc1[C@H](Cn1c(=O)n(C(C)(C)C(N)=O)c(=O)c2c(C)c(-c3ncco3)sc21)OC1CCOCC1 [I-246]", "µg/mL", 16],
  ["COc1ccccc1[C@H](Cn1c(=O)n(C(C)(C)C(=O)O)c(=O)c2c(C)c(-c3ncco3)sc21)OC(C)C [I-159]", "µg/mL", 16],
  ["CCNC(=O)C(C)(C)n1c(=O)c2c(C)c(-c3ncco3)sc2n(C[C@H](OC(C)C)c2ccccc2OC)c1=O [I-236]", "µg/mL", 8],
  ["COc1ccccc1[C@@H](Cn1c(=O)n(C(C)(C)C(=O)O)c(=O)c2c(C)c(-c3ncco3)sc21)OC(C)C [I-158]", "µg/mL", 2],
  ["COc1ccccc1[C@H](Cn1c(=O)n(C(C)(C)C(N)=O)c(=O)c2c(C)c(-c3ncco3)sc21)OC(C)C [I-174]", "µg/mL", 2]
]}

Next:
Task item: Indicate its recorded MIC; the compound in question is COc1ccccc1[C@H](Cn1c(=O)n(C(C)(C)C(=O)N2CCOCC2)c(=O)c2c(C)c(-c3ncco3)sc21)OC(C)C [I-235]
Reply: 8

---

Each entry below carries its recorded IC50.
target_or_test_system: UniProt O00763
measurement_description: In vitro ACC2 inhibition assay (ADP-Glo)
Format: biochemical
study_conditions: read-out: ACC2
From the text: An exemplary procedure for the in vitro ACC inhibition assay, which can be used to determine the inhibitory action of compounds of the invention toward either ACC1 or ACC2, follows. The ADP-Glo™ Kinase Assay kit from Promega was used. The ADP-Glo™ Kinase Assay is a luminescent ADP detection assay to measure enzymatic activity by quantifying the amount of ADP produced during an enzyme reaction. […] Luminescence can be correlated to ADP concentrations by using an ATP-to-ADP conversion curve. […]

Reference set, count: 2
{"columns": ["compound", "IC50"],
 "data": [
  ["CCOC(=O)c1sc2c(c1C)c(=O)n(CC(=O)O)c(=O)n2C[C@@H](O)c1ccccc1 [I-77]", "5 to 20 µM"],
  ["CCOC(=O)c1sc2c(c1C)c(=O)n(CCO)c(=O)n2CCc1ccc(Cl)cc1 [I-17]", "> 50 µM"]
]}

Task item: Indicate its recorded IC50; the compound in question is CCOC(=O)c1sc2c(c1C)c(=O)n(CCO)c(=O)n2CCc1ccccc1F [I-23]
Reply: 20 to 50 µM

Task item: Indicate its recorded IC50; the compound in question is CCOC(=O)c1sc2c(c1C)c(=O)n(CC(=O)O)c(=O)n2Cc1cc2ccccc2[nH]1 [I-88]
Reply: > 50 µM

Task item: Indicate its recorded IC50; the compound in question is CCOC(=O)c1sc2c(c1C)c(=O)n(CCOC)c(=O)n2CCc1ccccc1 [I-6]
Reply: 20 to 50 µM

Task item: Indicate its recorded IC50; the compound in question is CCOC(=O)c1sc2c(c1C)c(=O)n(CC(=O)O)c(=O)n2CC(OC)c1ccccc1 (stereo in doubt) [I-105]
Reply: < 1 µM

Task item: Indicate its recorded IC50; the compound in question is CCOC(=O)c1sc2c(c1C)c(=O)n(C(C)(C)C(=O)O)c(=O)n2C[C@H](O[C@H](C)CC)c1ccccc1 [I-130]
Reply: < 1 µM

Task item: Indicate its recorded IC50; the compound in question is Cc1c(-c2ncco2)sc2c1c(=O)n(C(C)(C)C(=O)O)c(=O)n2C[C@H](OC(=O)N1CC(O)C1)c1ccccc1 [I-230]
Reply: < 5 µM
